Tested on: Abp1 PPIs
Test: DHFR-PCA of Abp1 SH3-swapped baits (Fig. 2B-D, S2C, S2F)
Assay type: cell-based, Saccharomyces cerevisiae
Details: number of interactions of Abp1 carrying the named SH3; sheet FigS2A-B
MEASURED ENDPOINT: Interactions in Abp1
Enter the number alone.

What value of measured Interactions in Abp1 is listed for Pin3 (protein, UniProt Q06449 2-215, looked up) [PSI+] inducibility protein 3: SASLINRSLTNIRTELDFLKGSNVISNDVYDQINKSLPAKWDPANAPRNASPASLEYVEALYQFDPQQDGDLGLKPGDKVQLLEKLSPEWYKGSCNGRTGIFPANYVKPAFSGSNGPSNLPPPPQYKAQELQQIPTQNSAASSYQQQPFPPPSTNYYQQPQQQPQQAPPPQQQQQQQQHQSSHSHLKSFGSKLGNAAIFGAGASIGSDIVNNIF ? 99

Same again, this time with Sho1 (protein, UniProt P40073 1-367, looked up) High osmolarity signaling …: MSISSKIRPTPRKPSRMATDHSFKMKKFYADPFAISSISLAIVSWVIAIGGSISSASTNESFPRFTWWGIVYQFLIICSLMLFYCFDLVDHYRIFITTSIAVAFVYNTNSATNLVYADGPKKAAASAGVILLSIINLIWILYYGGDNASPTNRWIDSFSIKGIRPSPLENSLHRARRRGNRNTTPYQNNVYNDAIRDSGYATQFDGYPQQQPSHTNYVSSTALAGFENTQPNTSEAVNLHLNTLQQRINSASNAKETNDNSNNQTNTNIGNTFDTDFSNGNTETTMGDTLGLYSDIGDDNFIYKAKALYPYDADDDDAYEISFEQNEILQVSDIEGRWWKARRANGETGIIPSNYVQLIDGPEEMHR 81

# repeat for Pex13 (protein, UniProt P80667 1-386, looked up) Peroxisomal membrane protein …: MSSTAVPRPKPWETSASLEEPQRNAQSLSAMMTSNQQDSRPTEESNNSNSASESAPEVLPRPAALNSSGTYGESNTIPGIYGNSNYGIPYDNNPYSMNSIYGNSIGRYGYGGSYYGNNYGSFYGGGYGAGAGYGMNNGSGLGESTKATFQLIESLIGAVTGFAQMLESTYMATHNSFFTMISVAEQFGNLKEMLGSFFGIFAIMKFLKKILYRATKGRLGIPPKNFAESEGSKNKLIEDFQKFNDSGTINSNEKATRRKISWKPLLFFLMAVFGFPYLLNKFITKLQTSGTIRASQGNGSEPIDPSKLEFARALYDFVPENPEMEVALKKGDLMAILSKKDPLGRDSDWWKVRTKNGNIGYIPYNYIEIIKRRKKIEHVDDETRTH 91

Likewise for Lsb1 (protein, UniProt P53281 2-241, looked up) LAS seventeen-binding protein …: SASLVNRSLKNIRNELEFLKESNVISGDIFELINSKLPEKWDGNQRSPQNADTEEYVEALYDFEAQQDGDLSLKTGDKIQVLEKISPDWYRGKSNNKIGIFPANYVKPAFTRSASPKSAEAASSSTVSRPSVPPPSYEPAASQYPSQQVSAPYAPPAGYMQAPPPQQQQAPLPYPPPFTNYYQQPQQQYAPPSQQAPVEAQPQQSSGASSAFKSFGSKLGNAAIFGAGSAIGSDIVNSIF ? 106
